test-details: Human HepG2 cell viability assay in 384 well format
Type: toxicity, cell-based
Set-up: dose 125 nL, time 70.5 hour; concentration not given beside the values
condition-summary: HepG2 cells, read-out: Inhibition
outcome-measure: cytotoxicity at 70.5 h (%)

compound	outcome-measure	display-unit	value-reported
O=C(NCCn1ccnc1)c1cccc(Br)c1	cytotoxicity at 70.5 h	%	-13
COCc1cccc(C(=O)N2CCCN(C(=O)OCC(C)C)CC2)c1	cytotoxicity at 70.5 h	%	-5.18
Cc1nnc([C@@H]2CC[C@@H]3[C@@H](CCN3S(=O)(=O)c3cccnc3)O2)o1	cytotoxicity at 70.5 h	%	0.577
NC(=O)C1CCCN1Cc1cccc(NC(=O)c2cc(Cl)cc(Cl)c2)c1 (stereo unspecified)	cytotoxicity at 70.5 h	%	-15.9
O=S(=O)(C1CC1)N1CCc2c(CN3CCOCC3)cncc2C1	cytotoxicity at 70.5 h	%	-2.38
CC(C)c1n[nH]c(C2CN(C(=O)CCc3cscn3)CCO2)n1 (stereo unspecified)	cytotoxicity at 70.5 h	%	13.2
COc1ccc(C[C@H]2CN(C(=O)c3cnoc3)CC[C@@H]2OC)cc1	cytotoxicity at 70.5 h	%	-3.97
CNC(=O)Cc1ccc(NC(=O)NCc2nc(C)sc2C)cc1	cytotoxicity at 70.5 h	%	13.2
CC(=O)N1CCN(Cc2csc(-c3cnn(C)c3)n2)CC1	cytotoxicity at 70.5 h	%	2.34
N[C@H]1CN(C(=O)Cc2cc(F)cc(Cl)c2)C[C@@H]1C1CC1	cytotoxicity at 70.5 h	%	-3.32
COc1cccc(C(C(=O)O)N2CCCN(C3CCCC3)CC2)c1OC (stereo unspecified)	cytotoxicity at 70.5 h	%	20.1

* * *

test-details: Human HepG2 cell viability assay in 384 well format
Assay type: toxicity, cell-based
Set-up: dose 125 nL, time 70.5 hour; concentration not given beside the values
condition-summary: HepG2 cells, read-out: Inhibition

molecule	cytotoxicity at 70.5 h, %
COc1cccc(CN2CCc3nc4ccsc4c(=O)n3CC2)c1	12.2
CC(C)c1cc(NC2CCN(C(=O)N3CCCC3)CC2)ncn1	12.6
O=C(NCCOCCO)[C@@]12CNC[C@@H]1CN(C1CCCC1)C2	2.24
O=C(NCCn1nc(C2CCNC2)c2cccnc21)C1CC1 (configuration not stated)	-1.28
COc1cc2c(nn1)CCN(Cc1ncc(C(C)(C)C)o1)C2	-5.34
Cc1ccc(-c2noc(CN3CCOC(CN(C)C)C3)n2)cc1F (configuration not stated)	-0.0729
CN(Cc1noc(C2CC2)n1)C1CCN(CCn2cccn2)C1 (configuration not stated)	-5.95
CC1CCCN(c2ccccc2OCC(=O)NC2CCOCC2)C1 (configuration not stated)	28.3
CC(C)CNC(=O)c1cccc(Oc2ccc3nncn3n2)c1	-9.71
O=C(NCCn1nc(-n2cncn2)ccc1=O)c1ccc(F)cc1F	-5.23
COc1ncc(C)cc1NC(=O)CCc1ccccn1	17.6
O=C(C1CCCC1)N1CCCC2(CCN(c3cnccn3)CC2)C1	-8.23

* * *

test-details: Human HepG2 cell viability assay in 384 well format
Assay type: toxicity, cell-based
Parameters: dose 125 nL, time 70.5 hour; concentration not given beside the values
condition-summary: HepG2 cells, read-out: Inhibition
Recorded measurements of cytotoxicity at 70.5 h, one per entry
outcome-measure: cytotoxicity at 70.5 h (%)

compound	outcome-measure	value-reported
CCSCCNC(=O)Nc1cc(C(=O)N2CCOCC2)ccc1Cl	cytotoxicity at 70.5 h	-3.96
NCC1Cc2cc(-c3nccc(N4CCC(O)CC4)n3)cc(Cl)c2O1 (configuration not stated)	cytotoxicity at 70.5 h	5.41
COCCN(C)Cc1nc(-c2cccc(F)c2F)oc1C	cytotoxicity at 70.5 h	-11.3
Cc1ccc(Cl)cc1N1CCC(CNC(=O)CCn2ccnc2)C1 (configuration not stated)	cytotoxicity at 70.5 h	-10.1
O=C(CSC1=NS(=O)(=O)c2cc(Cl)ccc2N1)c1ccccc1	cytotoxicity at 70.5 h	23.9
O=C(CC1CSc2nccc(=O)n21)NCc1cc(-c2ccco2)on1 (configuration not stated)	cytotoxicity at 70.5 h	-11.9
CCCN1C(=O)c2ccccc2C1OC (configuration not stated)	cytotoxicity at 70.5 h	-6.48
Cc1ccsc1C(O)CNS(=O)(=O)Cc1ccc(F)cc1 (configuration not stated)	cytotoxicity at 70.5 h	-10.1
O=C(NC1CC1)C(c1ccccc1)N1CCn2c(nnc2C2CC2)C1 (configuration not stated)	cytotoxicity at 70.5 h	1.07
Cc1ccc(C(C)NC(=O)N2CCN(S(C)(=O)=O)CC2)o1 (configuration not stated)	cytotoxicity at 70.5 h	1.52
Cc1noc(-c2c[nH]nc2C2CCCN2C(=O)c2ccccc2)c1C (configuration not stated)	cytotoxicity at 70.5 h	-4.46
Cc1cc(C)n(CCC(=O)N2CCCC(n3cncn3)C2)n1 (configuration not stated)	cytotoxicity at 70.5 h	25.8

* * *

test-details: Human HepG2 cell viability assay in 384 well format
Assay type: toxicity, cell-based
Design: dose 125 nL, time 70.5 hour; concentration not given beside the values
condition-summary: HepG2 cells, read-out: Inhibition
outcome-measure: cytotoxicity at 70.5 h (%)

compound	value-reported
CN(Cc1ccccc1)C(=O)c1nc(S(C)(=O)=O)n2ccccc12	31.2
CS(=O)(=O)c1cccc(OCC(=O)N2CCCC2c2ccc[nH]2)c1 (stereo unspecified)	-7.78
CCc1nc2n(n1)CC(NCC(=O)Nc1cc(C(C)(C)C)no1)CC2 (stereo unspecified)	-0.0913
COc1ccc(C2CCCN2c2nnc(C)s2)c(OC)c1 (stereo unspecified)	64.4
Cn1cc(CN2CCCC(c3nc(O)cc(-c4cccs4)n3)C2)cn1 (stereo unspecified)	-6.31
Cc1nc(CNC2(C(=O)OC(C)(C)C)CCCC2)oc1C	-8.39
NC(=O)NCC(=O)N1C[C@H]2CC[C@@H]1CN(Cc1ccccc1)C2	1.42
Cc1nn(CN(Cc2ccsc2)C2CC2)c(=O)c2noc(C)c12	-8.61
c1ccc(C2CN(c3ncnc4[nH]cnc34)CCO2)cc1 (stereo unspecified)	-8.36
CC(C)Cc1noc(CN2CCOCC2)n1	-0.996
O=C(NC(C(=O)Nc1cc[nH]n1)c1ccccc1)C1CCC1 (stereo unspecified)	-0.966

* * *

Recorded measurements of cytotoxicity at 70.5 h, one per entry
test-details: Human HepG2 cell viability assay in 384 well format
Type: toxicity, cell-based
Set-up: dose 125 nL, time 70.5 hour; concentration not given beside the values
condition-summary: HepG2 cells, read-out: Inhibition
outcome-measure: cytotoxicity at 70.5 h (%)

molecule	display-unit	value-reported
Cc1cc(C(=O)NCCN2CCC(C)CC2)nn1C(C)(C)C	%	-15.3
CCCC(C#N)NC(=O)COC1CCCCC1 (centres undefined)	%	6.33
CN1CCN(c2cc(NC(=O)Cn3ccc4ccccc43)ncn2)CC1	%	1.47
CCCc1cc(=O)[nH]c2nnc(SCC(=O)NCCc3ccccc3)n12	%	-5.81
CC(=O)N[C@@H]1CN(C(=O)c2csc(C(C)C)n2)C[C@H]1C(C)C	%	-7.11
CC(C)c1ccc(OCCC(=O)N2CCC(C(=O)N(C)C)CC2)cc1	%	-3.99
CCS(=O)(=O)N1C[C@@H](C(=O)NC(C)C)[C@@]2(Cc3ccccc3C(=O)N2)C1	%	-11.3
Cc1cc(C)n(CC2CN(c3nnc(C)c(C)c3C#N)CCO2)n1 (centres undefined)	%	-3.24
CN1CC2(CCN(Cc3cc(Cl)ccc3OCC(=O)O)CC2)OC1=O	%	-8.9
CC(C)(NCc1ccc(C#N)cc1)c1ccc2c(c1)OCO2	%	12.3
CCc1c(C)nc(-n2nc(C3CC3)cc2NC(C)=O)[nH]c1=O	%	1.53
CSCc1noc(CN2CCC3(CC2)CC(=O)N(CC=C(C)C)C3)n1	%	-11.8
CCCC(NC(=O)c1ccccn1)c1nnc2ccccn12 (centres undefined)	%	-12.2
C1CCC(NCCN2CCOCC2)C1	%	16.9
CC(C)CN1CCC(C(=O)NCCNC(=O)c2ccccc2)CC1	%	-4.76
O=C(NCCn1nc2ccccn2c1=O)c1cc[nH]n1	%	0.216
O=C(c1cccnc1O)N1CCC2(CCCO2)CC1	%	-6.62
O=C(Cc1ccccc1)N1CCCC2(COCCN(CC3CC3)C2)C1 (centres undefined)	%	-0.0192
NC(=O)c1cnc(NCC(=O)NCc2ccccc2)c(Cl)c1	%	-4.1
COc1ccc(Cc2ncc3c(n2)CN(C(=O)CO)C3)cc1	%	-6.42
CNS(=O)(=O)c1ccc(CNC(=O)N2CCOC(C)C2)cc1 (centres undefined)	%	10.2
CSc1ccc(NC(=O)Cn2cc(NC(C)=O)cn2)cc1	%	-7.71
COc1ncccc1NC(=O)N1CCC(c2ccc(O)cc2)CC1	%	-3.42
Cc1ccc2c(n1)N(CCn1cccn1)CCN(C(=O)NC1CC1)C2	%	-10.7

* * *

test-details: Human HepG2 cell viability assay in 384 well format
Assay type: toxicity, cell-based
Parameters: dose 125 nL, time 70.5 hour; concentration not given beside the values
condition-summary: HepG2 cells, read-out: Inhibition
Recorded measurements of cytotoxicity at 70.5 h, one per entry

compound	cytotoxicity at 70.5 h / %
COc1ccc(CN2CC[C@@H]3CN(S(C)(=O)=O)CCO[C@@H]3C2)cc1	-2.97
CNC(=O)Cn1ccc2ccc(NC(=O)NC(C)C(C)C)cc21 (stereo unspecified)	-9.08
Cc1cc(C(=O)N2C[C@@H]3CN(S(C)(=O)=O)CCO[C@@H]3C2)c(C)o1	19.5
COc1cc(OC)cc(-c2cc(N)on2)c1	-7.45
Cc1cn[nH]c1C1COCCN1Cc1ccsc1 (stereo unspecified)	-0.803
Cc1cc(S(=O)(=O)N2CCCN3CCCC3C2)ccc1F (stereo unspecified)	-9.81
CC(C)c1nn(C)c(N(C)C)c1CNCc1ccc2c(c1)OCCO2	-5.83
O=S1(=O)[C@@H](c2ccccc2)[C@H](CO)CN1C1CC1	-1.65
CSCc1nc(CCNC(=O)C(N)c2c(C)n[nH]c2C)cs1 (stereo unspecified)	-3.99
c1cnc(N2CCOCC3(CCCN(CC4CCOCC4)C3)C2)nc1 (stereo unspecified)	-1.71
CCc1ccc(C2COCCN2C(=O)Nc2cc(C)on2)o1 (stereo unspecified)	-3.5

Attribution: ChEMBL document CHEMBL3507680
